# system-name: hMC4-R (Homo sapiens (Human), UniProt P32245)
# Sequence (P32245 whole entry): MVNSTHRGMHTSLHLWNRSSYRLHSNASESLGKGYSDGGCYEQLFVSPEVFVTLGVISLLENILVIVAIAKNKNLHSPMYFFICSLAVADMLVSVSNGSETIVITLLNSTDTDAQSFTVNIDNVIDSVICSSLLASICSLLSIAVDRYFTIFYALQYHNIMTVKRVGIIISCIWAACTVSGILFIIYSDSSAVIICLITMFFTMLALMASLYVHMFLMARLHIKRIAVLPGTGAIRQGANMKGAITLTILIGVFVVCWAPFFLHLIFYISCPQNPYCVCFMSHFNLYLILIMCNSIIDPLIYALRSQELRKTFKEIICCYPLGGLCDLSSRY
# method-description: High and low density hMC4-R functional assay (cAMP, HEK293-T-REx-MC4-R cells)
# Format: cell-based
# study-conditions: 10 ng/mL Doxycycline (high density hMC4-R system); NDP-α-MSH = 100%; read-out: Intrinsic Activity (%)
Positions of bridges follow the written chain, without caps; N, C: chain ends. Non-standard residues stand in square brackets, D forms with d. Residues, ends and D or L forms follow the SMILES beside them. dPhe(3-Cl) = N[C@H](Cc1cccc(Cl)c1)C(=O)O; Orn = NCCC[C@H](N)C(=O)O
Each record here notes measured Emax.
Give the number; % is assumed, so skip it.

Data request: Answer with reported Emax of CC(=O)N[C@@H](CCCNC(=N)N)C(=O)N[C@H]1CCC(=O)NCCC[C@@H](C(N)=O)NC(=O)[C@H](Cc2c[nH]c3ccccc23)NC(=O)[C@H](CCCNC(=N)N)NC(=O)[C@@H](Cc2cccc(Cl)c2)NC(=O)[C@H](CCCCN)NC1=O [Example 100] (Ac-REK[dPhe(3-Cl)]RW[Orn]-NH2; lactam 2-7)
Data returned: 93

---

# system-name: hMC4-R (Homo sapiens (Human), UniProt P32245)
# method-description: High and low density hMC4-R functional assay (cAMP, HEK293-T-REx-MC4-R cells)
# Type: cell-based
# study-conditions: 0.1 ng/mL Doxycycline (low density hMC4-R system)
endpoint-label: EC50
Answers without a unit are incomplete; give the number and then its unit.

Completed entries (count: 3):
structure-smiles-string	system-name	endpoint-label	data-value
CC(=O)N[C@@H](CCCNC(=N)N)C(=O)N[C@H]1CCC(=O)NCCC[C@@H](C(N)=O)NC(=O)[C@H](Cc2c[nH]c3ccccc23)NC(=O)[C@H](CCCNC(=N)N)NC(=O)[C@@H](Cc2ccccc2F)NC(=O)[C@@H]2CCCN2C1=O	hMC4-R (Homo sapiens (Human), UniProt P32245)	EC50	5 nM
CC(=O)N[C@@H](CCCNC(=N)N)C(=O)N[C@H]1CCC(=O)NCCC[C@@H](C(N)=O)NC(=O)[C@H](Cc2c[nH]c3ccccc23)NC(=O)[C@H](CCCNC(=N)N)NC(=O)[C@@H](Cc2ccc(F)cc2)NC(=O)[C@@H]2C[C@@H](O)CN2C1=O	hMC4-R (Homo sapiens (Human), UniProt P32245)	EC50	0.45 nM
CC(=O)N[C@@H](CCCNC(=N)N)C(=O)N[C@H]1CCC(=O)NCCC[C@@H](C(N)=O)NC(=O)[C@H](Cc2c[nH]c3ccccc23)NC(=O)[C@H](CCCNC(=N)N)NC(=O)[C@@H](Cc2cccc(F)c2)NC(=O)[C@H](CCN)NC1=O	hMC4-R (Homo sapiens (Human), UniProt P32245)	EC50	0.45 nM

# context switch: different molecule, same EC50
Data request: Write down EC50 measured for item CC(=O)N[C@@H](CCCNC(=N)N)C(=O)N[C@H]1CCC(=O)NCCC[C@@H](C(N)=O)NC(=O)[C@H](Cc2c[nH]c3ccccc23)NC(=O)[C@H](CCCNC(=N)N)NC(=O)[C@@H](Cc2ccc([N+](=O)[O-])cc2)NC(=O)[C@H](CCN)NC1=O
Data returned: 0.7 nM

---

# system-name: hMC4-R (Homo sapiens (Human))
# method-description: High and low density hMC4-R functional assay (cAMP, HEK293-T-REx-MC4-R cells)
# Assay type: cell-based
# study-conditions: 0.1 ng/mL Doxycycline (low density hMC4-R system); NDP-α-MSH = 100%; read-out: Intrinsic Activity (%)
endpoint-label: Emax (%)
Write the value in % as a bare number.

structure-smiles-string	system-name	Emax, %
CC(=O)N[C@@H](CCCNC(=N)N)C(=O)N[C@H]1CCC(=O)NCCC[C@@H](C(N)=O)NC(=O)[C@H](Cc2c[nH]c3ccccc23)NC(=O)[C@H](CCCNC(=N)N)NC(=O)[C@@H](Cc2ccc(N)cc2)NC(=O)[C@H](CCN)NC1=O	hMC4-R (Homo sapiens (Human))	35

Field: next compound
Data request: Look up and state reported Emax for CC(=O)N[C@H](CCCNC(=N)N)C(=O)N[C@H]1CCCNC(=O)CC[C@@H](C(N)=O)NC(=O)[C@H](Cc2c[nH]c3ccccc23)NC(=O)[C@H](CCCNC(=N)N)NC(=O)[C@@H](Cc2ccc(C#N)cc2)NC(=O)[C@H](Cc2c[nH]cn2)NC1=O
Data returned: 31
